# Test system: biotinyl-Met-oxazolone
# Test Summary: self-aminoacylation, catalytic enhancement (BMO) (fold over background); higher = more active; k-Seq, kA / k0A0; sequences stand for … in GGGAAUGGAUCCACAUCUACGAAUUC…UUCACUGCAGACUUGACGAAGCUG
Fewer inactive variants are shown than the library holds.
Parameter Measured: self-aminoacylation

AGUACCCUGGUCAUUGAGUGA [Fam2.1 aminoacylation ribozyme variant] | 6.37
CCACCCUUUAAGCAAUCGGUC [Fam1B.1 aminoacylation ribozyme variant] | 0.892

Could you report self-aminoacylation for every entry in the following list?
1. AUUCGCCUAGGUAAUCGGGUG [Fam2.2 aminoacylation ribozyme variant]
2. CUACUUCAAACAAUCGGCGUG [Fam1A.1 aminoacylation ribozyme variant]
3. AUCACCCUGGGCAUCGAGUGA [Fam2.1 aminoacylation ribozyme variant]
4. AUUCAGCUAGGUCAUCGGGCG [Fam2.2 aminoacylation ribozyme variant]
5. AUUCUACUAGGUCAUCGGGUG [Fam2.2 aminoacylation ribozyme variant]
6. CUACUUCAAUCAAACGGUCUG [Fam1A.1 aminoacylation ribozyme variant]
7. AAGUUUGCUAAUAGUGGCAAU [Fam3.1 aminoacylation ribozyme variant]

Result:
1. 3.62
2. 4.44
3. 10.6
4. 3.2
5. 5.82
6. 0.639
7. 1.16

----------
# System: biotinyl-Leu-oxazolone
# Test Summary: self-aminoacylation, catalytic enhancement (BLO) (fold over background); higher = more active; k-Seq, kA / k0A0; sequences stand for … in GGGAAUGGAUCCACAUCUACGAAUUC…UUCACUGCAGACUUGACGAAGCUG
Variants at the floor of the assay were thinned out.
Each entry gets NOT MET if its self-aminoacylation stays under 3, and MET if its self-aminoacylation is 3 or above.

Use these answered entries as a reference point.
AUUACCCUGGUCAGCGACUGA [Fam2.1 aminoacylation ribozyme variant] | NOT MET
AUUCCCCUAGGUCAUCGGGAG [Fam2.2 aminoacylation ribozyme variant] | MET
CUACGUAAAACAAUCGGUCUG [Fam1A.1 aminoacylation ribozyme variant] | NOT MET

Ask: Quick check: does AUGCUUCAAACAAUCGGUCUG [Fam1A.1 aminoacylation ribozyme variant] have self-aminoacylation greater than or equal to 3?
Result: MET

Ask: Quick check: does AAUCGCCUAGGUCAUCGGGUG [Fam2.2 aminoacylation ribozyme variant] have self-aminoacylation greater than or equal to 3?
Result: MET

----------
# System: biotinyl-Leu-oxazolone
# Test Summary: self-aminoacylation, catalytic enhancement (BLO) (fold over background); higher = more active; k-Seq, kA / k0A0; sequences stand for … in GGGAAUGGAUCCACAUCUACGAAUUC…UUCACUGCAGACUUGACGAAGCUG
This sample holds only a part of the variants without activity.
Please go through the items and note down their self-aminoacylation.

AUUACCCUAGUCAUCGAGUAA [Fam2.1 aminoacylation ribozyme variant] | 1.19
AUUCCCCUAGGCCAUCGGGUG [Fam2.2 aminoacylation ribozyme variant] | 19.3
AAGUUUGUUAAUAGUCGCAGG [Fam3.1 aminoacylation ribozyme variant] | 2.45

Could you report self-aminoacylation for every entry in the following list?
1. AAGUUUGCUAAUAGUCCAAAG [Fam3.1 aminoacylation ribozyme variant]
2. UUUCACCUAGAUCAUCGGGUG [Fam2.2 aminoacylation ribozyme variant]
3. CUACUUCAAACAAUGCGUCUG [Fam1A.1 aminoacylation ribozyme variant]
4. CGACUUCAAACAAUCAGUCUG [Fam1A.1 aminoacylation ribozyme variant]
5. AAUCACCUAGGUCAUCGGGAG [Fam2.2 aminoacylation ribozyme variant]
6. AUUACGCUGGUCAUCGAGAGA [Fam2.1 aminoacylation ribozyme variant]
7. CUAGUUCACACAAUCGGUCUG [Fam1A.1 aminoacylation ribozyme variant]
8. AAGUUUGCCAAUAGACGCAAG [Fam3.1 aminoacylation ribozyme variant]

Result:
1: 0.966; 2: 2.82; 3: 0.975; 4: 1.27; 5: 1.51; 6: 1.42; 7: 1.36; 8: 0.562
